Molecular target: Acetylcholinesterase (Homo sapiens)
Sequence (P22303 whole entry): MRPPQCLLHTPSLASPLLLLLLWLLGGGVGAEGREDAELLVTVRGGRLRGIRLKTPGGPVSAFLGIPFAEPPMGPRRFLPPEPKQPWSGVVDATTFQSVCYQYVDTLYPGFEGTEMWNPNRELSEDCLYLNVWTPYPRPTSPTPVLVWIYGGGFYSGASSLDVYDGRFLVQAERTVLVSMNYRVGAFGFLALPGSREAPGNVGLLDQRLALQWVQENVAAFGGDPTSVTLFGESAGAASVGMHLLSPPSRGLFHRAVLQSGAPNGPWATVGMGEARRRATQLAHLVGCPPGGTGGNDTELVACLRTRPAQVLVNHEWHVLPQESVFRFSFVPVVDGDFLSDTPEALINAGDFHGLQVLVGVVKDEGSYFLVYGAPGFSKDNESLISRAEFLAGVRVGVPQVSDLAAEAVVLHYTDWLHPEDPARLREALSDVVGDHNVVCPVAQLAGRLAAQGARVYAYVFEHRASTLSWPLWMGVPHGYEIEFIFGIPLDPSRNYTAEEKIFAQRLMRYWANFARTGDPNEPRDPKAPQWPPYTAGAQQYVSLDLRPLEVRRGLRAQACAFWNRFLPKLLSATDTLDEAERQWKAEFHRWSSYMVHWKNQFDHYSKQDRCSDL
Kindly apply the following: YES if IC50 is less than 100 nM, NO in every other case.

compound: CN(C)c1ccc(/C=C2/S/C(=N/c3ccc4oc(=O)ccc4c3)NC2=O)cc1
targetDesc: Acetylcholinesterase (Homo sapiens)
categoryLabel: YES
--
compound: O=c1ccc2cc(/N=C/c3ccccc3)ccc2o1
targetDesc: Acetylcholinesterase (Homo sapiens)
categoryLabel: NO
--
compound: O=C(CNc1ccc(F)cc1)Nc1ccc2oc(=O)ccc2c1
targetDesc: Acetylcholinesterase (Homo sapiens)
categoryLabel: YES
--
compound: O=C1N/C(=N\c2ccc3oc(=O)ccc3c2)S/C1=C/c1ccc(Cl)cc1
targetDesc: Acetylcholinesterase (Homo sapiens)
categoryLabel: NO
--
compound: CN(C)c1ccc(/C=N/c2ccc3oc(=O)ccc3c2)cc1
targetDesc: Acetylcholinesterase (Homo sapiens)
categoryLabel: YES
--
compound: O=C(CNc1ccc2oc(=O)ccc2c1)N1CCOCC1
targetDesc: Acetylcholinesterase (Homo sapiens)
categoryLabel: YES
--
compound: COc1ccc(NCC(=O)Nc2ccc3oc(=O)ccc3c2)cc1
targetDesc: Acetylcholinesterase (Homo sapiens)
categoryLabel: YES
--
compound: O=C1N/C(=N\c2ccc3oc(=O)ccc3c2)S/C1=C/c1ccc(F)cc1
targetDesc: Acetylcholinesterase (Homo sapiens)
categoryLabel: NO
--
compound: COc1ccc(/C=N/c2ccc3oc(=O)ccc3c2)cc1
targetDesc: Acetylcholinesterase (Homo sapiens)
categoryLabel: NO
--
compound: O=c1ccc2cc(/N=C/c3ccc(Br)cc3)ccc2o1
targetDesc: Acetylcholinesterase (Homo sapiens)
categoryLabel: YES
--
compound: O=c1ccc2cc(/N=C/c3ccc(F)cc3)ccc2o1
targetDesc: Acetylcholinesterase (Homo sapiens)
categoryLabel: NO
--
compound: O=C1N/C(=N\c2ccc3oc(=O)ccc3c2)S/C1=C/c1ccc(Br)cc1
targetDesc: Acetylcholinesterase (Homo sapiens)
categoryLabel: NO
--
compound: COc1ccc(C2SCC(=O)N2c2ccc3oc(=O)ccc3c2)cc1 (stereo not drawn)
targetDesc: Acetylcholinesterase (Homo sapiens)
categoryLabel: YES
--
compound: O=C1N/C(=N\c2ccc3oc(=O)ccc3c2)S/C1=C/c1ccccc1
targetDesc: Acetylcholinesterase (Homo sapiens)
categoryLabel: YES
--
compound: O=c1ccc2cc(/N=C/c3ccc(Cl)cc3)ccc2o1
targetDesc: Acetylcholinesterase (Homo sapiens)
categoryLabel: YES
--
compound: COc1ccc(C(=O)CNc2ccc3oc(=O)ccc3c2)cc1
targetDesc: Acetylcholinesterase (Homo sapiens)
categoryLabel: YES
--
compound: O=C(CNc1ccc2oc(=O)ccc2c1)N1CCN(c2ccccc2)CC1
targetDesc: Acetylcholinesterase (Homo sapiens)
categoryLabel: YES
--
compound: COc1ccc(/C=C2/S/C(=N/c3ccc4oc(=O)ccc4c3)NC2=O)cc1
targetDesc: Acetylcholinesterase (Homo sapiens)
categoryLabel: YES
--
compound: CSc1ccc(/C=C2/S/C(=N/c3ccc4oc(=O)ccc4c3)NC2=O)cc1
targetDesc: Acetylcholinesterase (Homo sapiens)
categoryLabel: NO
--
compound: CSc1ccc(C2SCC(=O)N2c2ccc3oc(=O)ccc3c2)cc1 (stereo not drawn)
targetDesc: Acetylcholinesterase (Homo sapiens)
categoryLabel: NO
--
compound: CSc1ccc(/C=N/c2ccc3oc(=O)ccc3c2)cc1
targetDesc: Acetylcholinesterase (Homo sapiens)
categoryLabel: NO
--
compound: O=C(CNc1ccc2oc(=O)ccc2c1)c1ccccc1
targetDesc: Acetylcholinesterase (Homo sapiens)
categoryLabel: NO

Source: ChEMBL document CHEMBL4406838
